# System: ACHN renal
# test_method_notes: NCI-60 one-dose screen, 48 h
# study_conditions: 10 µM unless noted
About 83,000 compounds went through this panel and 20% of them were active in at least one assay; those are over-represented in the sample as a whole. Active and inactive are the calls of the source. The calls were made as follows: active = growth percent below 10; inactive = the rest.
Labels: active, inactive

compound	cat
O=C(CCCCCn1c2ccccc2c2c3c(c4c5ccccc5[nH]c4c21)C(=O)N(O)C3=O)N1CCOCC1	inactive
CCCCC[C@H]1C/C=C2/C(=O)C=C[C@@H]2C/C=C\CCCC(=O)O[C@@H](CCCCC)C/C=C2/C(=O)C=C[C@@H]2C/C=C\CCCC(=O)O1	active
COc1ccc(C(=O)c2ccc(C)cc2)c(OC)c1OC	inactive
O=C(N/N=C\c1c(O)ccc2ccccc12)C1CC1	inactive
N#C/C(=C\c1ccc(-c2ccc(Cl)cc2)o1)c1nc(-c2ccco2)cs1	inactive
CC(=O)O[C@@H]1CCN2C(=O)N(C)c3ccccc3[C@@H]2C1	inactive
O=C1NC(=Nc2ccc(S(=O)(=O)Nc3nccs3)cc2)S/C1=C\c1coc2ccccc2c1=O	inactive
O=S(=O)(NCCNc1cc(-c2cn(-c3ccccc3)nc2-c2cccc(O)c2)ccn1)c1ccc(C(F)(F)F)cc1	inactive
NCCn1cc(-c2nc(-c3c[nH]c4ncccc34)cs2)c2cc(Br)ccc21	inactive
CC(=O)NC1=C(C#N)C(c2ccccc2Cl)c2c(ccc3ccccc23)O1 (configuration not stated)	inactive
O=c1[nH]c(=S)[nH]c2nc[nH]c12	inactive
Cn1cc(-c2csc(-c3cn(CCCN4CCCCC4)c4ccc(F)cc34)n2)c2cccnc21	inactive
Cc1ccsc1-c1ccc2c(c1)COC2(CCCN(C)C)c1ccc(F)cc1 (configuration not stated)	inactive
CC(=O)Cc1nsc(NC(=O)c2ccoc2COc2ccccc2)n1	inactive
Cc1ccncc1C(=O)O	inactive
CCc1nnc(NC(=O)c2ccoc2COc2ccccc2)s1	inactive
Brc1ccc(Cn2nnnc2-c2ccn(-c3ccccc3)n2)cc1	inactive
COC(=O)[C@]12CC[C@@H](C)[C@H](C)[C@@H]1C1=CC[C@@H]3[C@@]4(C)C[C@@H](OC(C)=O)[C@H](O)[C@@](C)(COC(C)=O)[C@@H]4[C@H](O)C[C@@]3(C)[C@]1(C)CC2	active
N#C/C(=C\c1ccc(-c2ccc(Br)cc2)o1)c1nc(-c2cccs2)cs1	inactive
Nc1c(Cl)cc(N=Nc2ccccc2)cc1Cl	inactive
COc1ccc(C2C(C#N)=C(N)Oc3c2sc2c(F)cccc32)cc1 (configuration not stated)	inactive
COc1ccc(CCN2C(=O)C(C)(C)SC2=S)cc1OC	inactive

----------
# Tested on: RPMI-8226 leukemia
# test_method_notes: NCI-60 one-dose screen, 48 h
# study_conditions: 10 µM unless noted
Compounds without any hit were thinned out: in the full panel of roughly 83,000, 20% have a hit. Calls of active or inactive are those of the source. Rule for the calls: active = growth percent below 10; inactive = the rest.
Labels: t = active, f = inactive

> print(dat)
                                    compound  cat
 1  COc1cc(/C=C2\C(=O)N(CC(O)COc3cc(O)c4c(=O)cc(-c5ccccc5)oc4c3)c3ccccc32)cc(OC)c1O (stereo not given)    f
 2  CCOC(=O)N1CCN(CCCCOc2ccc(C(C)(C)CC)cc2)CC1    f
 3  COc1cc(-c2cc(-c3nc4ccc(F)cc4[nH]3)[nH]n2)cc(OC)c1OC    t
 4  COc1cc(/C=C/c2cc(/C=C/c3ccc(O)c(OC)c3)n(-c3ccc(Cl)cc3)c(=O)n2)ccc1O    f
 5  Cc1cc(N(CCCNc2ccnc3cc(Cl)ccc23)Cc2ccco2)nc(Cl)n1    f
 6  COc1cc(-c2cc3ncccc3c3[nH]c(=O)c4cccnc4c23)cc(OC)c1OC    t
 7  CCN(CC)CCCCCNc1cc(OC(=O)c2ccccc2)cc2cccnc12    f
 8          Oc1ccccc1/C=N\NC(=S)Nc1ccc(F)cc1    f
 9  O=C1CN(c2ccccc2)C(=O)C1C(=O)Nc1ccc(Cl)c(Cl)c1 (stereo not given)    f
10  COc1cc(/C=C/c2cc(/C=C/c3ccc(O)c(OC)c3)n(-c3ccccc3)c(=O)n2)ccc1O    f

----------
# Tested on: SF-539 CNS
# test_method_notes: NCI-60 one-dose screen, 48 h (100 = growth as untreated, 0 = no growth, -100 = all killed)
# study_conditions: 10 µM unless noted
# Protocol: Cells are grown in 96 well plates and exposed to the test compound for 48 hours. Compounds are tested at a single concentration, which is 10^-5 M for most compounds. The reported endpoint is percent growth (GI% or GIPRCNT), where numbers from 0 - 100% represent growth inhibition, and numbers from -100% - 0 represent cell death. For example, a value of 40 represents 60% growth inhibition. A value of 0 means no net growth occurred over the course of the experiment. […]
About 83,000 compounds went through this panel and 20% of them were active in at least one assay; those are over-represented in the sample as a whole. Active and inactive are the calls of the source. How the source made its calls: active means growth percent below 10; inactive means the rest.
outcome_measure: growth

> print(dat)
                                    molecule           reported.result
 1  Nc1c2c(nc3ccc(Cl)cc13)CC(c1ccccc1)CC2=O (stereo not drawn)          38.5% (inactive)
 2  Cc1csc(-c2ccc3c(c2)COC3(CCCN(C)C)c2ccc(F)cc2)c1 (stereo not drawn)          73.9% (inactive)
 3   Brc1cnc2[nH]cc(-c3nnc(-c4ccccc4)o3)c2c1          89.6% (inactive)
 4  COc1ccc2c(c1)c1nc3cc(C)c(C)cc3nc1n2CCN(C)C           -13.2% (active)
 5  COc1ccc(C2CC(=O)c3c(nc4ccc(Cl)cc4c3N)C2)cc1 (stereo not drawn)           107% (inactive)
 6  N#C/C(=C\c1ccc(-c2ccc(Br)cc2)o1)c1nc(-c2cccs2)cs1          93.8% (inactive)
 7  CCOC(=O)C1OC1(c1ccccc1)c1ccccc1 (stereo not drawn)           106% (inactive)
 8  COc1cc2nc(Cl)nc(Nc3cccc(C(=O)/C=C/c4ccc(F)cc4)c3)c2cc1OC          25.8% (inactive)
 9  C#CCN=C[C@]12CC[C@@H](C(=C)C)[C@@H]1[C@H]1CC[C@@H]3[C@@]4(C)CCC(=O)C(C)(C)[C@@H]4CC[C@@]3(C)[C@]1(C)CC2          80.2% (inactive)
10       Cn1c(=O)c2c(nc(N3CCCC3)n2C)n(C)c1=O           101% (inactive)
11  CN1CCN(c2ccc3nc(-c4[nH]ncc4Nc4ncnc5[nH]ccc45)[nH]c3c2)CC1           -43.6% (active)
12  C=C(C)[C@@H]1CC[C@]2(C)[C@H](CC=C3[C@@H]4CC(C)(C)CC[C@]4(C=O)CC[C@]32C)[C@@]1(C)CCCN          89.3% (inactive)
13  COc1cnc2c(c1)C(=O)c1c-2n(CCCN2CCN(CCO)CC2)c(=O)c2cc([N+](=O)[O-])ccc12          57.5% (inactive)
14  CC(C)/C=C/CC[C@](C)(O)[C@H]1CC[C@]2(C)[C@@H]1CC[C@@H]1[C@@]3(C)C/C(=C/c4cccc(C(F)(F)F)c4)C(=O)C(C)(C)[C@@H]3CC[C@]12C          97.6% (inactive)
15                       O=C1C=Cc2ncccc2C1=O          86.3% (inactive)
16  COc1ccc(-n2c(/C=C/c3ccc(O)c(OC)c3)cc(/C=C/c3ccc(O)c(OC)c3)nc2=O)cc1            39% (inactive)
17  COc1cccc(-c2nn(-c3ccccc3)cc2-c2ccnc(NCCNS(=O)(=O)c3ccc(Cl)cc3)c2)c1          54.1% (inactive)
18            O=C(O)c1cccc2c1-c1ccc(Cl)cc1C2           104% (inactive)
19  COc1ccc(/C(=C\c2ccc3c(c2)OCO3)C(=O)Nc2nc3ccccc3s2)cc1OC          93.8% (inactive)
20  O=C1CN(c2ccccc2)C(=O)C1C(=O)Nc1ccc(Cl)c(Cl)c1 (stereo not drawn)  -9.88% [100 µM] (active)
21  COc1ccc2c(c1)C(Br)=C(CCO)C2c1ccccc1 (stereo not drawn)          63.7% (inactive)
22  CC(Cc1ccco1)C(=O)NC(N)=O (stereo not drawn)          97.8% (inactive)
23  C=C(C)[C@@H]1CC[C@]2(C(=O)OC)CC[C@]3(C)[C@H](CC[C@@H]4[C@@](C)(CC/C(N)=N/O)[C@H](C(=C)C)CC[C@]43C)[C@@H]12          97.5% (inactive)
24  COc1c(N)c2c(c([N+](=O)[O-])c1OC)C(=O)OC2           104% (inactive)
25  N#CC1C(=N)Cc2ccccc2-c2ccccc21 (stereo not drawn)          63.4% (inactive)
26        O=C1c2ccccc2C(=Cc2ccccc2)c2ccccc21           -26.2% (active)
27                 O=C(CI)Nc1ccc(O)c2ccccc12           -28.6% (active)
28  O=S(=O)(NCCNc1cc(-c2cn(-c3ccccc3)nc2-c2cccc(O)c2)ccn1)c1ccccc1            70% (inactive)
29  COc1ccc(C2NC(=O)Nc3ccccc32)c(OC)c1 (stereo not drawn)          93.8% (inactive)
30  C=C1C(=O)O[C@H]2[C@H]1CC/C(Cn1cc(-c3ccc(F)cc3)nn1)=C\CC[C@@]1(C)O[C@@H]21           -34.6% (active)
31  CC(C)=CCC[C@](C)(O)[C@H]1CC[C@]2(C)[C@@H]1CC[C@@H]1[C@@]3(C)C/C(=C/c4ccc(Br)cc4)C(=O)C(C)(C)[C@@H]3CC[C@]12C          99.5% (inactive)
32  Cc1ccccc1-c1nc(C(Cl)Cl)nc2cc(-c3ccccc3)nn12          76.3% (inactive)
33       Fc1ccc(NCc2nnc(-c3ccc(Cl)cc3)o2)cc1          90.6% (inactive)
34  C=C(C)[C@@H]1CC[C@]2(C=O)CC[C@]3(C)[C@H](CC[C@@H]4[C@@]5(C)C/C(=C/c6cccnc6)C(=O)C(C)(C)[C@@H]5CC[C@]43C)[C@@H]12          96.5% (inactive)
35  CN1CCN(CCOc2ccc(-c3cnc4c(-c5cccc(F)c5)cnn4c3)cc2)CC1          70.6% (inactive)
36  C=C(C)[C@@H]1CC[C@]2(C)CC[C@]3(C)[C@H](CC[C@@H]4[C@@]5(C)CCCNC(C)(C)[C@@H]5CC[C@]43C)[C@@H]12          98.2% (inactive)
37  Nc1nc2c(c(=O)[nH]1)C(c1ccc3c(c1)OCO3)C=C(C(=O)O)N2 (stereo not drawn)           101% (inactive)
38  Cc1ccc(Nc2c(C(N)=O)cnc3ccc(S(=O)(=O)Nc4cc(C)on4)cc23)cc1          92.7% (inactive)
